The values you see were collected from paper PMC9159852.

- System: Escherichia coli (ATCC 25922)
- ASSAY_REMARKS: Antibacterial activity, serial dilutions in liquid broth, E. coli
- Type: cell-based
- SETUP_CONDITIONS: E. coli (G-)
MEASUREMENT_NAME: log10 MIC (log10 of the value in µg/mL)

>>> experimental_value("C=CCNC(=NN=Cc1ccccn1)[S][Cu][O]C(C)=O.C=CCNC(=NN=Cc1ccccn1)[S][Cu][O]C(C)=O.O.O.O.O [compound 4, [Cu2(L)2(CH3COO)2]·4H2O]")
0.29
>>> experimental_value("C=CCNC(=NN=Cc1ccccn1)[S][Cu][Br] [compound 3, [Cu(L)Br]]")
0.89
>>> experimental_value("C=CCNC([S-])=NN=Cc1ccccn1.C=CCNC([S-])=NN=Cc1ccccn1.[Cl-].[Co+3] [compound 6, [Co(L)2]Cl]")
2.40
>>> experimental_value("C=CCNC(=NN=Cc1ccccn1)[S][Cu][Cl] [compound 2, [Cu(L)Cl]]")
0.59
>>> experimental_value("C=CCNC(=S)NN=Cc1ccccn1.C=CCNC(=S)NN=Cc1ccccn1.O.[Cl-].[Cl-].[Ni+2] [compound 5, [Ni(HL)2]Cl2·H2O]")
3.00

====

- ASSAY_REMARKS: Acute toxicity assay against Daphnia magna
- SETUP_CONDITIONS: Daphnia magna, in vivo, other: exposure in the test medium (immersion), pH 7.5
MEASUREMENT_NAME: viability at 24 h, 100 µM (%)

>>> experimental_value("COc1cccc2c1C(=O)c1c(O)c3c(c(O)c1C2=O)C[C@@](O)(C(=O)CO)C[C@@H]3O[C@H]1C[C@H](N)[C@H](O)[C@H](C)O1 [Doxorubicin, doxorubicin, reference compound]")
0

====

- Tested on: human leukemia HL-60 cell line
- ASSAY_REMARKS: Antiproliferative activity (MTS and Resazurin assays), HL-60
- Type: cell-based
- SETUP_CONDITIONS: HL-60, Table 3
pIC50: −log10 of the molar value.
MEASUREMENT_NAME: pIC50

>>> experimental_value("C=CCNC(=NN=Cc1ccccn1)[S][Cu][Br] [compound 3, [Cu(L)Br]]")
7.00
>>> experimental_value("C=CCNC(=S)NN=Cc1ccccn1.C=CCNC(=S)NN=Cc1ccccn1.O.[Cl-].[Cl-].[Ni+2] [compound 5, [Ni(HL)2]Cl2·H2O]")
7.05
>>> experimental_value("C=CCNC(=NN=Cc1ccccn1)[S][Cu][O]C(C)=O.C=CCNC(=NN=Cc1ccccn1)[S][Cu][O]C(C)=O.O.O.O.O [compound 4, [Cu2(L)2(CH3COO)2]·4H2O]")
7.00
>>> experimental_value("C=CCNC(=NN=Cc1ccccn1)[S][Cu][Cl] [compound 2, [Cu(L)Cl]]")
7.00

====

- ASSAY_REMARKS: Acute toxicity assay against Daphnia magna
- SETUP_CONDITIONS: Daphnia magna, in vivo, other: exposure in the test medium (immersion), pH 7.5
MEASUREMENT_NAME: viability at 24 h, 0.1 µM (%)

>>> experimental_value("COc1cccc2c1C(=O)c1c(O)c3c(c(O)c1C2=O)C[C@@](O)(C(=O)CO)C[C@@H]3O[C@H]1C[C@H](N)[C@H](O)[C@H](C)O1 [Doxorubicin, doxorubicin, reference compound]")
87.2

====

- Tested on: Candida albicans (ATCC 10231)
- ASSAY_REMARKS: Antifungal activity, serial dilutions in liquid broth, C. albicans
- Format: cell-based
- Protocol: Antibacterial and antifungal properties of the studied substances were determined on a series of standard strains of Gram-positive microorganisms (Staphylococcus aureus (ATCC 25923)), Gram-negative microorganisms (Escherichia coli (ATCC 25922)), and fungi (Candida albicans (ATCC 10231)) using the method of serial dilutions in liquid broth. […]
This listing pairs compounds with measured MFC.
MEASUREMENT_NAME: MFC (µg/mL)

>>> experimental_value("C=CCNC(=NN=Cc1ccccn1)[S][Cu][Br] [compound 3, [Cu(L)Br]]")
15.6
>>> experimental_value("C=CCNC(=NN=Cc1ccccn1)[S][Cu][Cl] [compound 2, [Cu(L)Cl]]")
31.3
>>> experimental_value("C=CCNC([S-])=NN=Cc1ccccn1.C=CCNC([S-])=NN=Cc1ccccn1.[Cl-].[Co+3] [compound 6, [Co(L)2]Cl]")
250
>>> experimental_value("C=CCNC(=NN=Cc1ccccn1)[S][Cu][O]C(C)=O.C=CCNC(=NN=Cc1ccccn1)[S][Cu][O]C(C)=O.O.O.O.O [compound 4, [Cu2(L)2(CH3COO)2]·4H2O]")
62.5
